Each recorded value in this set is attributed to patent US5068354A.

Target: papain (Carica papaya, UniProt P00784)
Construct: purchased Sigma Chemical Co
Sequence (P00784 134-345): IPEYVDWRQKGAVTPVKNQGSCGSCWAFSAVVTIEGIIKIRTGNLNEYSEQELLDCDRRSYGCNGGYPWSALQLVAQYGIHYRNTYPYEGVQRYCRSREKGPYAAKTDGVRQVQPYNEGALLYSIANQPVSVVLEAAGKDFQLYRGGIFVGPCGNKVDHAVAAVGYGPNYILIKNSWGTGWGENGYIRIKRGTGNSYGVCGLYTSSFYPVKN
Assay: Inhibitory Activity against Papain
Assay type: biochemical
Settings: pH 6.8, preincubated 40° C. 3 min, incubation 10 min, read-out: concentration of the test drug required for 50% inhibition (IC50)
pIC50: −log10 of the molar value.

| Compound | Experimental Target | pIC50 |
| --- | --- | --- |
| CCOC(=O)[C@H]1O[C@@H]1C(=O)N[C@H](C(=O)N1CCC[C@H]1C(=O)O)[C@@H](C)CC [Example 5] | papain (Carica papaya, UniProt P00784) | 4.80 |

====

Property: IC50; scope: individual molecules
System: cathepsin B
Assay: Inhibitory Activity against Cathepsin B
Type: biochemical
Conditions: pH 6.0, preincubated 40° C. 10 min, incubation 10 min
Measured Property: IC50 (nM)

| Molecule | Endpoint Value |
| --- | --- |
| CC[C@H](C)[C@H](NC(=O)[C@H]1O[C@@H]1C(=O)O)C(=O)N1CCC[C@H]1C(=O)OC [Reference Example, reference compound] | 8800 |
| CCOC(=O)[C@H]1O[C@@H]1C(=O)N[C@H](C(=O)N1CCC[C@H]1C(=O)O)[C@@H](C)CC | 120 |
